The reported numbers originate from patent US20240109898A1.

Biological target: CDK2/CycA (Homo sapiens (Human))
Assay: LANCE Ultra kinase activity inhibition assay, CDK2/CycA
Type: biochemical
Conditions: ATP 10 μM, highest compound concentration 10 μM
Attribute measured: IC50

{"columns": ["Molecule", "Result"],
 "data": [
  ["N[C@H]1CC[C@H](Nc2cc(C(F)(F)C3CC3)nc3ccnn23)C1", "> 10 µM"],
  ["Cc1cnn2c(N[C@H]3CC[C@H](N)C3)cc([C@H](C)C3CC3)nc12 [Compound Z-32-P1]", "> 10 µM"],
  ["Cc1cnn2c(N[C@H]3CC[C@H](N)C3)cc(C(C)(C)C3CCC3)nc12", "> 10 µM"]
]}

Each molecule below has a recorded value; state its IC50.
1. C=Cc1cnn2c(N[C@H]3CC[C@H](N)C3)cc(C(C)C3CC3)nc12 (some centres unmarked)
2. C[C@@H](c1cc(N[C@H]2C[C@H](N)C2)n2nccc2n1)C1CC1 [Compound Z-62-P2]
3. Cc1cnn2c(N[C@H]3CC[C@H](N)C3)cc(CC3(C)CC3)nc12
4. N#Cc1cnn2c(N[C@H]3CC[C@H](N)C3)cc(C(C3CC3)C3CC3)nc12
5. C=CC(C)(C)c1cc(N[C@H]2CC[C@H](N)C2)n2ncc(C)c2n1

(A)
3.2 µM
> 10 µM
8.71 µM
0.828 µM
> 10 µM

----------
Target: CDK2/CycA (Homo sapiens (Human))
Test: LANCE Ultra kinase activity inhibition assay, CDK2/CycA
Format: biochemical
Conditions: ATP 10 μM, highest compound concentration 10 μM
Method: In the following LANCE Ultra test methods, kinase reagents were purchased from Carna Bioscience, reaction substrates and detection reagents were purchased from PerkinElmer, and the remaining reagents were purchased from Thermo scientific. […] After the test solution was added, the solution was placed on a shaker and continually incubated at room temperature for 1 h in the dark. […] The inhibition rate was calculated as below. […]
Attribute measured: log10(IC50) (log10 of the value in µM)
All values: log10 IC50 [µM].

Worked set:
{"columns": ["Molecule", "log10(IC50)"],
 "data": [
  ["N[C@H]1CC[C@H](Nc2cc(CC3CC3)nc3c(Cl)cnn23)C1", 0.28],
  ["Cc1cnn2c(N[C@H]3CC[C@H](N)C3)cc(CC3CCC3)nc12", 0.89]
]}

Each molecule below has a recorded value; state its log10(IC50).
1. N[C@H]1CC[C@H](Nc2cc(C(F)C3CCCC3)nc3ccnn23)C1 (some centres unmarked)
2. CC(c1cc(N[C@H]2CC[C@H](N)C2)n2nccc2n1)C1(C)CC1 (some centres unmarked)
3. Cc1cnn2c(N[C@H]3CC[C@H](N)C3)cc([C@@H](C)C3CC3)nc12 [Compound Z-32-P2]

(A)
1. 0.93
2. 0.45
3. 0.83

(Q) State the recorded log10(IC50) for this entry: CC(=O)N[C@H]1CC[C@H](Nc2cc(C(C)C3CC3)nc3c(Cl)cnn23)C1 (some centres unmarked)
(A) -0.56

----------
Target: CDK9/CycT (Homo sapiens (Human), UniProt P50750)
Sequence (P50750 whole entry): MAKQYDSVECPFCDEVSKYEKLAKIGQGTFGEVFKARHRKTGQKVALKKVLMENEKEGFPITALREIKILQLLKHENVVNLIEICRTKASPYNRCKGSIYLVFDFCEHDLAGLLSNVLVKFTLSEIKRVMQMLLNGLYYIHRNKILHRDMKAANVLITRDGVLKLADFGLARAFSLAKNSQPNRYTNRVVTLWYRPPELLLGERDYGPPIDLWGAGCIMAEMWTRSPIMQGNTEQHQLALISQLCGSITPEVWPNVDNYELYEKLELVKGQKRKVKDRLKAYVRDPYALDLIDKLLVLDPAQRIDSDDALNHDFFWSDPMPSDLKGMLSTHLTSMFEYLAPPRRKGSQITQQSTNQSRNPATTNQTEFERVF
Sequence (O60563 whole entry partner): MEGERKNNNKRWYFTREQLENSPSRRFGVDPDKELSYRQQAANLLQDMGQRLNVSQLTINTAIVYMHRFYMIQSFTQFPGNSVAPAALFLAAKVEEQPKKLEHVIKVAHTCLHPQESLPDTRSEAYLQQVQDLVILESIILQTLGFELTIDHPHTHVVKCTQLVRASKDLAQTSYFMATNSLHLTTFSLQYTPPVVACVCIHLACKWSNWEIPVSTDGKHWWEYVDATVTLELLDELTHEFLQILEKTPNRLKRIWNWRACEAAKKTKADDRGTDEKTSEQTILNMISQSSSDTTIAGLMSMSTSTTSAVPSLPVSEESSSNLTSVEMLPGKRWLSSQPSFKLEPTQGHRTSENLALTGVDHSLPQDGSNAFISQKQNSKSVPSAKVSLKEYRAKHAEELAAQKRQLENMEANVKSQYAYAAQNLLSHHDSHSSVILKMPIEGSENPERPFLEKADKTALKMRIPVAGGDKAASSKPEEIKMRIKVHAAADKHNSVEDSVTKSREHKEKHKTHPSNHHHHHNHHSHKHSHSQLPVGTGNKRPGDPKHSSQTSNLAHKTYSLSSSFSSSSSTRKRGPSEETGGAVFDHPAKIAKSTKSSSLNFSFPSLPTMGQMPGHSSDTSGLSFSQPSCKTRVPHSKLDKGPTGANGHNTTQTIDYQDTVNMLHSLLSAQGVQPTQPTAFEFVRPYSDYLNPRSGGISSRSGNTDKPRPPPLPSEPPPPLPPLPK
Assay: LANCE Ultra kinase activity inhibition assay, CDK9/CycT
Assay type: biochemical
Settings: ATP 10 μM, highest compound concentration 1 μM
Simple rule here: IC50 less than 0.03 µM is Condition met, otherwise Condition not met.

Some solved entries appear below for comparison.
{"columns": ["Compound", "Classification"],
 "data": [
  ["CC(c1cc(N[C@H]2C[C@H](N)C2)n2nccc2n1)C1CC1 (stereo partly shown)", "Condition met"],
  ["C[C@@H](c1cc(N[C@H]2CC[C@H](N)C2)n2nccc2n1)C1(C)CC1 [Compound Z-27-P1]", "Condition not met"],
  ["CC(=N)N[C@H]1CC[C@H](Nc2cc(C(C)C3CC3)nc3c(Cl)cnn23)C1 (stereo partly shown)", "Condition met"],
  ["CCc1cnn2c(N[C@H]3CC[C@H](N)C3)cc(C(C3CC3)C3CC3)nc12", "Condition met"]
]}

Turning to the following compound.
(Q) Strictly below 0.03 µM: is that where IC50 of "N[C@H]1CC[C@H](Nc2cc(C(C3CC3)C3CC3)nc3c(C(F)(F)F)cnn23)C1" sits?
(A) Condition met

----------
Biological target: CDK9/CycT (Homo sapiens (Human), UniProt P50750)
Assay: LANCE Ultra kinase activity inhibition assay, CDK9/CycT
Assay type: biochemical
Settings: ATP 10 μM, highest compound concentration 1 μM
Attribute measured: IC50 (µM)
Give bare numbers, in µM.

Worked set:
{"columns": ["Molecule", "Attribute measured", "Number"],
 "data": [
  ["CC(=N)N[C@H]1CC[C@H](Nc2cc(C(C3CC3)C3CC3)nc3c(Cl)cnn23)C1 [Compound Z-66]", "IC50", 0.018],
  ["Cc1cnn2c(N[C@H]3CC[C@H](N)C3)cc(CC3(C)CC3)nc12 [Compound Z-25]", "IC50", 0.021],
  ["CC[C@@H](c1cc(N[C@H]2CC[C@H](N)C2)n2ncc(C)c2n1)C1CC1 [Compound Z-30-P2]", "IC50", 0.022],
  ["C=CC(C)(C)c1cc(N[C@H]2CC[C@H](N)C2)n2ncc(Cl)c2n1 [Compound Z-56]", "IC50", 0.013],
  ["Cc1cnn2c(N[C@H]3CC[C@H](N)C3)cc([C@H](C)C3(C)CC3)nc12 [Compound Z-26-P1]", "IC50", 0.005],
  ["CCC(c1cc(N[C@H]2CC[C@H](N)C2)n2nccc2n1)C1CC1 (some centres unmarked) [Compound Z-28]", "IC50", 0.011],
  ["N[C@H]1CC[C@H](Nc2cc([C@@H](F)C3CCC3)nc3ccnn23)C1 [Compound Z-41-P1]", "IC50", 0.047]
]}

(Q) State the recorded IC50 for this entry: N#Cc1cnn2c(N[C@H]3CC[C@H](N)C3)cc(C(C3CC3)C3CC3)nc12 [Compound Z-4]
(A) 0.014

----------
Test: In vivo pharmacokinetics in mice
Conditions: mouse, plasma, po; male ICR mice, intragastric 10 mg/kg; read-out: Area under the oral curve AUC0-t
For each record, write down the corresponding AUC(0-t).
Numbers only, in ng·h/mL.

{"columns": ["Molecule", "Number"],
 "data": [
  ["Cc1cnn2c(N[C@H]3CC[C@H](N)C3)cc([C@@H](C)C3CC3)nc12 [Compound Z-32-P2]", 9410],
  ["Cc1cnn2c(N[C@H]3CC[C@H](N)C3)cc(C(C3CC3)C3CC3)nc12 [Compound Z-9]", 7860],
  ["C=CC(C)(C)c1cc(N[C@H]2CC[C@H](N)C2)n2ncc(Cl)c2n1 [Compound Z-56]", 6090],
  ["C[C@H](c1cc(N[C@H]2CC[C@H](N)C2)n2nccc2n1)C1CCC1 [Compound Z-11-P1]", 2960],
  ["C[C@H](c1cc(N[C@H]2C[C@H](N)C2)n2nccc2n1)C1CC1 [Compound Z-62-P1]", 2060]
]}

Each molecule below has a recorded value; state its AUC(0-t).
1. C[C@H](c1cc(N[C@H]2CC[C@H](N)C2)n2nccc2n1)C1CC1 [Compound Z-5-2]
2. CCC(CC)c1cc(N[C@H]2CC[C@H](N)C2)n2nccc2n1 [Compound D, reference compound]

(A)
1: 1700; 2: 1190

----------
Biological target: CDK1/CycB (Homo sapiens (Human), UniProt P06493)
Sequence (P06493 whole entry): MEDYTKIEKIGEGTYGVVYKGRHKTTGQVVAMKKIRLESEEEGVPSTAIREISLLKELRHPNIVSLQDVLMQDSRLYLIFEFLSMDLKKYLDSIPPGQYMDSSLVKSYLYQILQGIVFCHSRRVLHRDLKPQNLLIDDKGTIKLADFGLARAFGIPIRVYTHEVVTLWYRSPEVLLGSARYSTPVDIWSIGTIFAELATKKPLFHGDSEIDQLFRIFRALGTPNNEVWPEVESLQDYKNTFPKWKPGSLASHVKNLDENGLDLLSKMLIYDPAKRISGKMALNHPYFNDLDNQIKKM
Sequence (P14635 whole entry partner): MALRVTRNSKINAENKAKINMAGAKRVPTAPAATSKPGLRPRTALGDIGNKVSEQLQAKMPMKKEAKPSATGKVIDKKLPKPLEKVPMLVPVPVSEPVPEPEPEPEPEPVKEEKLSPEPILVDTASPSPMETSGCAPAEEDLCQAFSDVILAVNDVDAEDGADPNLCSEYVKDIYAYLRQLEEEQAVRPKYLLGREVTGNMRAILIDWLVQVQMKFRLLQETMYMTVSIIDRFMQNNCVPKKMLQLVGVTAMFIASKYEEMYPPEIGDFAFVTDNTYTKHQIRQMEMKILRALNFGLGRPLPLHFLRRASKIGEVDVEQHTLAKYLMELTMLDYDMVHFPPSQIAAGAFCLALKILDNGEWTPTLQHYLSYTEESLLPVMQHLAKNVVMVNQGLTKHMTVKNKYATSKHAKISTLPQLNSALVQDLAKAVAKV
Assay: LANCE Ultra kinase activity inhibition assay, CDK1/CycB
Format: biochemical
Settings: ATP 4 μM, highest compound concentration 10 μM
Simple rule here: IC50 less than 2 µM is T, otherwise F.

Some solved entries appear below for comparison.
{"columns": ["Compound", "Classification"],
 "data": [
  ["N[C@H]1CC[C@H](Nc2cc([C@@H](F)C3CCC3)nc3ccnn23)C1 [Compound Z-41-P1]", "F"],
  ["CC(c1cc(N[C@H]2CC[C@H](N)C2)n2nccc2n1)C1CCCC1 (stereo partly shown)", "T"],
  ["CCC(c1cc(N[C@H]2CC[C@H](N)C2)n2nccc2n1)C1CC1 (stereo partly shown)", "T"],
  ["CC(c1cc(NC2CCN(N)C2)n2ncc(Cl)c2n1)C1CC1 (stereo not shown) [Compound Z-47]", "T"],
  ["CC(=N)N[C@H]1CC[C@H](Nc2cc(C(C)C3CC3)nc3c(F)cnn23)C1 (stereo partly shown)", "F"],
  ["NN1CCC(Nc2cc(C(C3CC3)C3CC3)nc3ccnn23)C1 (stereo not shown)", "F"],
  ["Cc1cnn2c(N[C@H]3CC[C@H](N)C3)cc(C(C3CC3)C3CC3)nc12", "T"],
  ["Cc1cnn2c(N[C@H]3CC[C@H](N)C3)cc([C@H](C)C3CC3)nc12 [Compound Z-32-P1]", "F"],
  ["N[C@H]1CC[C@H](Nc2cc(C(C3CC3)C3CC3)nc3c(C(F)(F)F)cnn23)C1", "T"],
  ["C=CCC(C)(C)c1cc(N[C@H]2CC[C@H](N)C2)n2nccc2n1", "F"]
]}

(Q) Strictly below 2 µM: is that where IC50 of C=Cc1cnn2c(N[C@H]3CC[C@H](N)C3)cc(C(C)C3CC3)nc12 (stereo partly shown) sits?
(A) F

(Q) Then "CC(C)(c1cc(N[C@H]2CC[C@H](N)C2)n2ncc(Cl)c2n1)C1CC1" ?
(A) T

(Q) Then "CC(C)(c1cc(N[C@H]2CC[C@H](N)C2)n2nccc2n1)C1CC1" ?
(A) F

(Q) Then CC(c1cc(N[C@H]2C[C@H](N)C2)n2nccc2n1)C1CC1 (stereo partly shown) ?
(A) T

(Q) Then CCC(c1cc(N[C@H]2CC[C@H](NC(C)=N)C2)n2nccc2n1)C1CC1 (stereo partly shown) ?
(A) F

(Q) Then "CC(C)(c1cc(N[C@H]2CC[C@H](N)C2)n2nccc2n1)C1CCC1" ?
(A) F

(Q) Then "CC(=N)N[C@H]1CC[C@H](Nc2cc(C(C3CC3)C3CC3)nc3c(F)cnn23)C1" ?
(A) F
